test: Permeability across human Caco2 cells; assay type: ADME, cell-based; conditions: Caco-2, read-out: permeability
Measurement kind: Papp (×10⁻⁶ cm/s)
# number only, unit ×10⁻⁶ cm/s dropped from output

Completed entries (count: 2):
- Compound: "CCN1C(=O)C(c2cc(-c3cnn(C)c3)c(O)cc2O)C(=O)N(c2ccccc2)c2cc(C(F)(F)F)ccc21 (stereo not given)"
  Papp [×10⁻⁶ cm/s]: 7.7
- Compound: "CCCn1cc(-c2cc(C3C(=O)N(CC)c4ccc(C(F)(F)F)cc4N(c4ccccc4)C3=O)cc(OC)c2O)cn1 (stereo not given)"
  Papp [×10⁻⁶ cm/s]: 9.9

Ask: What value of Papp has been recorded for this entry: CCN1C(=O)C(c2cc(-c3cnn(C)c3)ccc2O)C(=O)N(c2ccccc2)c2cc(C(F)(F)F)ccc21 (stereo not given)
Reply: 4.3

----------
test: Half life in human liver microsomes; type: ADME, Microsome
Measurement kind: half-life (h)
# number only, unit h dropped from output

Completed entries (count: 3):
- Compound: "CCCn1cc(-c2cc(C3C(=O)N(CC)c4ccc(C(F)(F)F)cc4N(c4ccccc4)C3=O)cc(OC)c2O)cn1 (stereo not given)"
  Value observed: 1.43
- Compound: "CCN1C(=O)C(c2ccc(O)c(-c3cnn(C)c3)c2)C(=O)N(c2ccccc2)c2cc(C(F)(F)F)ccc21 (stereo not given)"
  Value observed: 2
- Compound: "CCN1C(=O)C(c2cc(-c3cnn(C)c3)c(O)cc2O)C(=O)N(c2ccccc2)c2cc(C(F)(F)F)ccc21 (stereo not given)"
  Value observed: 1.85

# context switch: different compound, same half-life
Ask: What value of half-life has been recorded for this entry: CCN1C(=O)C(c2cc(-c3cnn(C)c3)ccc2O)C(=O)N(c2ccccc2)c2cc(C(F)(F)F)ccc21 (stereo not given)
Reply: 2.5

----------
target: Cytochrome P450 2D6 (Homo sapiens, UniProt P10635); assay: Inhibition of CYP2D6 (unknown origin); format: ADME
Sequence (P10635 whole entry): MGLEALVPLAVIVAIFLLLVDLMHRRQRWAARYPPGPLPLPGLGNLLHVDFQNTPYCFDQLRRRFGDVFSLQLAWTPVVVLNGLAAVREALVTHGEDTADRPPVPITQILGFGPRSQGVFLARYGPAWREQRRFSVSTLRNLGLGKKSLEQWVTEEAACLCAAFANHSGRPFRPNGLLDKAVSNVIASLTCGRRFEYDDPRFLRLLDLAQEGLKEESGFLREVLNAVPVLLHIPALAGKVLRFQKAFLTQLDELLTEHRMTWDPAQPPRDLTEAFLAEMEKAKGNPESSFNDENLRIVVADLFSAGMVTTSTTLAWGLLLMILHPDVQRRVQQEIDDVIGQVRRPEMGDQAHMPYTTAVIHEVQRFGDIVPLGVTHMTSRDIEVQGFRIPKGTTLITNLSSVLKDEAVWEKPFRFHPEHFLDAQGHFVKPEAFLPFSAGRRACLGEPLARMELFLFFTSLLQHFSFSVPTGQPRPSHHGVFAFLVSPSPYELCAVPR
# INH values compiled below

Completed entries (count: 3):
- Molecule: "CCN1C(=O)C(c2cc(-c3cnn(C)c3)ccc2O)C(=O)N(c2ccccc2)c2cc(C(F)(F)F)ccc21 (stereo not given)"
  Measurement kind: "INH"
  Value observed: "> 30 µM"
- Molecule: "CCN1C(=O)C(c2ccc(O)c(-c3cnn(C)c3)c2)C(=O)N(c2ccccc2)c2cc(C(F)(F)F)ccc21 (stereo not given)"
  Measurement kind: "INH"
  Value observed: "> 30 µM"
- Molecule: "CCN1C(=O)C(c2cc(-c3cnn(C)c3)c(O)cc2O)C(=O)N(c2ccccc2)c2cc(C(F)(F)F)ccc21 (stereo not given)"
  Measurement kind: "INH"
  Value observed: "13 µM"

Ask: What value of INH has been recorded for this entry: CCCn1cc(-c2cc(C3C(=O)N(CC)c4ccc(C(F)(F)F)cc4N(c4ccccc4)C3=O)cc(OC)c2O)cn1 (stereo not given)
Reply: > 30 µM

Ask: What value of INH has been recorded for this entry: CCN1C(=O)C(c2cc(-c3cn[nH]c3)c(O)cc2O)C(=O)N(c2ccccc2)c2cc(C(F)(F)F)ccc21 (stereo not given)
Reply: 8.9 µM

----------
test: Induction of HIV1 NL4-3 nucleocapsid protein disassembly expressed in expressed in Escherichia coli BL21 (DE3) using 5'-end fluorescein labeled (TG)25 oligonucleotide after 2 hrs by fluorescence assay; parameters: species or system Human immunodeficiency virus 1
Decision: IC50 beneath 200 nM gives Y; IC50 meeting or exceeding 200 nM gives N.

See these solved cases before continuing.
- Compound: "CCN1C(=O)C(c2cccc(-c3ccncc3)c2)C(=O)N(c2ccccc2)c2cc(C(F)(F)F)ccc21 (centres undefined)"
  Class label: "Y"
- Compound: "CCCn1cc(-c2cc(C3C(=O)N(CC)c4ccc(C(F)(F)F)cc4N(c4ccccc4)C3=O)cc(OC)c2O)cn1 (centres undefined)"
  Class label: "Y"
- Compound: "CCN1C(=O)C2(CCc3cc(O)c(-c4cnn(C)c4)cc32)C(=O)N(c2ccccc2)c2cc(C(F)(F)F)ccc21 (centres undefined)"
  Class label: "Y"
- Compound: "CCN1C(=O)C(c2ccc(-c3cnc(OC)nc3)cc2)C(=O)N(c2ccccc2)c2cc(C(F)(F)F)ccc21 (centres undefined)"
  Class label: "N"
- Compound: "CCN1C(=O)C(c2cc(-c3cnn(C)c3)c(O)cc2O)C(=O)N(c2ccccc2)c2cc(C(F)(F)F)ccc21 (centres undefined)"
  Class label: "Y"
- Compound: "CCN1C(=O)C(c2cc(-c3cn[nH]c3)c(O)cc2O)C(=O)N(c2ccccc2)c2cc(C(F)(F)F)ccc21 (centres undefined)"
  Class label: "Y"
- Compound: "CCN1C(=O)C(c2ccc(-c3ccncc3)cc2)C(=O)N(c2ccccc2)c2cc(C(F)(F)F)ccc21 (centres undefined)"
  Class label: "N"
- Compound: "CCN1C(=O)N(c2ccc(O)c(-c3cnn(C)c3)c2)C(=O)N(c2ccccc2)c2cc(C(F)(F)F)ccc21"
  Class label: "Y"

Ask: Consider CN1C(=O)C(c2ccccc2)C(=O)N(c2ccccc2)c2cc(C(F)(F)F)ccc21 (centres undefined) . Does its IC50 lie strictly below 200 nM?
Reply: N
